Reference source for all entries: PubChem BioAssay (NCI)

tested on: HOP-92 NSCLC; experiment: NCI tumour cell line growth inhibition, 48 h
Here, each record is paired with measured TGI data.

- Molecule: "CCOC(=O)c1ccc2nc3n(c2c1)C(c1c(F)cccc1F)SC3 (stereo not drawn)"
  TGI: "> 100 µM"
- Molecule: "CC(=O)OC1CC2(C)C(=CC1C1SCCS1)CCC1C2CCC2(C)C(OC(C)=O)CCC12 (stereo not drawn)"
  TGI: "> 100 µM"
- Molecule: "O/N=C1\\C/C(=N\\O)c2c(Br)sc(Br)c21"
  TGI: "> 100 µM"
- Molecule: "CCOc1ccc2c(c1)C(/C(C(Cl)=C(Cl)Cl)=[N+](/[O-])OC(=O)c1ccccc1)=N2"
  TGI: "> 100 µM"
- Molecule: "N=c1ncn(C/C=C/c2ccccc2)c2nc[nH]c12"
  TGI: "> 100 µM"
- Molecule: "C=C1c2c(n(S(=O)(=O)c3ccccc3)c3ccccc23)[C@@]2(C(=O)OC)CC3C=CC2N1C3"
  TGI: "> 100 µM"
- Molecule: "Cc1cc(C)[n+]2c(c1)C=CC2"
  TGI: "> 100 µM"
- Molecule: "O=S(=O)(O)c1ccc(O)c(N=Nc2c(O)ccc3ccccc23)c1"
  TGI: "> 100 µM"

====

tested on: HL-60(TB) leukemia; experiment: NCI tumour cell line growth inhibition, 48 h
Where a SMILES comes first, the peptide text is derived from it. [ ]: non-standard residue; d: D form.
Here, each record is paired with measured TGI data.

- Molecule: "Cc1nc(N)c(N2CCN(S(=O)(=O)N(Cc3ccccc3)Cc3ccccc3)CC2)c(=O)[nH]1"
  TGI: "> 100 µM"
- Molecule: "COC(=O)/C1=C/C=C\\C[C@@]2(C)CC(c3ccoc3)OC(=O)[C@@H]2CC[C@H]1C (stereo not given in full)"
  TGI: "> 25 µM"
- Molecule: "CCSC12OC3(CCCCCN3C1=O)C1C(=O)N(c3ccccc3)C(=O)C12 (stereo not given)"
  TGI: "> 100 µM"
- Molecule: "O=C1c2ccccc2C(=O)N1CC#CCO"
  TGI: "> 100 µM"
- Molecule: "CC(C)C[C@H](NC(=O)[C@H](CC(C)C)NC(=O)[C@@H](Cc1c[nH]c2ccccc12)NC(=O)[C@H](Cc1ccccc1)NC(=O)[C@@H](Cc1c[nH]c2ccccc12)NC(=O)[C@H](CCC(N)=O)NC(=O)[C@@H](CCC(N)=O)NC(=O)[C@@H]1CCCN1C(=O)[C@@H](CCCCN)NC(=O)[C@H]1CCCN1C(=O)[C@H](N)CCCN=C(N)N)C(N)=O (H-[dR][dP][dK]P[dQ]Q[dW]F[dW]LL-NH2)"
  TGI: "> 100 µM"
- Molecule: "C[C@]12CCC(=O)C=C1C[C@@H](O)[C@@H]1[C@@H]2CC[C@@]2(C)[C@H]1CC[C@]2(C)O"
  TGI: "> 100 µM"
- Molecule: "Cc1ccc2ccccc2c1CSc1nc(N)nc2c1ncn2CC(C)C"
  TGI: "> 100 µM"
- Molecule: "N=C1C=CC(=C(c2ccc(N)cc2)c2ccc(N)cc2)C=C1"
  TGI: "36.1 µM"
- Molecule: "CC1Cc2c(Cl)ncnc2N(C)c2ccccc21 (stereo not given)"
  TGI: "15 µM"
- Molecule: "CC(=O)OC1CC2(C)C(=CC1C1SCCS1)CCC1C2CCC2(C)C(OC(C)=O)CCC12 (stereo not given)"
  TGI: "> 100 µM"
- Molecule: "OC1OCC(COc2cc(Cl)c(Cl)cc2Cl)OC1O (stereo not given)"
  TGI: "90.9 µM"
- Molecule: "O=C(CC12C3C4C1C1C2C3C41CC(=O)NO)NO (stereo not given)"
  TGI: "86.2 µM"
- Molecule: "C1=CC2C(C3CN(c4ccccc4)N=C13)C1C3C4C=CC21C=CC43 (stereo not given)"
  TGI: "> 100 µM"
- Molecule: "Cc1ccc2sc3c(NCCCN)nc4ccccc4c3c(=O)c2c1"
  TGI: "4.09 µM"
- Molecule: "N#CCCN(CCCCN(CCC#N)C(=O)Nc1ccccc1)C(=O)Nc1ccccc1"
  TGI: "> 100 µM"
- Molecule: "c1ccc2c(N=NSc3ncnc4nc[nH]c34)c3ccccc3nc2c1"
  TGI: "6.96 µM"
- Molecule: "CC(=O)C1=C(C)N(Cc2ccccc2)C2(O)C=CC(=O)C3=C(O)c4ccccc4C(=O)C312 (stereo not given)"
  TGI: "> 100 µM"
- Molecule: "COc1ccc(NC(=O)CSC(=O)c2ccccc2)c(SCCSSCCSc2cc(OC)ccc2NC(=O)CSC(=O)c2ccccc2)c1"
  TGI: "> 100 µM"
- Molecule: "CCC(=O)NC1=C(Cl)C(=O)C(NC(=O)CC)=C(Cl)C1=O"
  TGI: "> 23.7 µM"
- Molecule: "O=C(CCCCCNC(=O)c1ccc(Cl)cc1)NO"
  TGI: "16.1 µM"
- Molecule: "COc1cc2c(cc1OC)C(Cl)C(c1ccc(Br)cc1)=C2Cl (stereo not given)"
  TGI: "> 67.3 µM"
- Molecule: "O=C1C=CC2C3C(=O)N(c4ccccc4)C(=O)C3C1N2Cc1ccccc1 (stereo not given)"
  TGI: "8.79 µM"
- Molecule: "C=CCC1(CN(C)C)CC/C(=C\\c2ccc3c(c2)OCO3)C1=O (stereo not given)"
  TGI: "15.8 µM"
- Molecule: "CCOP(=O)(OCC)C(Nc1ccc(Cl)cc1)c1ccc(F)cc1 (stereo not given)"
  TGI: "54.1 µM"
- Molecule: "COc1ccccc1-c1csc(CCC(N)C(=O)O)n1 (stereo not given)"
  TGI: "> 100 µM"
